The measured values listed here are drawn from patent US20210196796A1.

Target: T1, orthogonal hCD122 receptor (hoRb), hCD122 with H133D and Y134F (human, UniProt P14784 27-550); also: reference of the scale not given here
T1 sequence: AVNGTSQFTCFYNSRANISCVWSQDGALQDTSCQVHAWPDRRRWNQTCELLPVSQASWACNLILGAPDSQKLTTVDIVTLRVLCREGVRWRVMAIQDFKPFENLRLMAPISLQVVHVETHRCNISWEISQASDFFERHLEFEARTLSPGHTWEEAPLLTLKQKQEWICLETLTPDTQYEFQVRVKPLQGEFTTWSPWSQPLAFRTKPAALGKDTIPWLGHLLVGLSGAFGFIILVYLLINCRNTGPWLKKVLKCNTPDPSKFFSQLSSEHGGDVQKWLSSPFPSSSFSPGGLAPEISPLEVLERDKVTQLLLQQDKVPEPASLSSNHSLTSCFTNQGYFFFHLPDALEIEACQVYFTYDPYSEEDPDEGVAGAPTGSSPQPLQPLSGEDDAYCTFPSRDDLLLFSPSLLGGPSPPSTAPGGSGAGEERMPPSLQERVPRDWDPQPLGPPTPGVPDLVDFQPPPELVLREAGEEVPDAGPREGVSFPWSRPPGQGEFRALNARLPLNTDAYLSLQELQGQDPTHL
Experiment: cell-based or functional assay
RESULT TYPE: Relative Proliferation Fold Change NKL 1:10 (fold)
The answer is to be given in fold; state only the numeric part.

Task: What does the data say about its Relative Proliferation Fold Change NKL 1:10? Entry: SQVLKV (ligand) APTSSSTKKTQLQLSQLLVLLKVILNGINNYKNPKLTRMLTFKFYMPKKATELKHLQCLEEELKPLEEVLNLAQSKNFHLRPRDLISNINVIVLELKGSETTFMCEYADETATIVEFLNRWITFCQSIISTLT
Result: 4.15

Task: Then what about the binder SQVLLA (ligand) APTSSSTKKTQLQLSQLLVLLLAILNGINNYKNPKLTRMLTFKFYMPKKATELKHLQCLEEELKPLEEVLNLAQSKNFHLRPRDLISNINVIVLELKGSETTFMCEYADETATIVEFLNRWITFCQSIISTLT ?
Result: 1.06

Task: Then what about the binder R81I, SQVLKA (ligand) APTSSSTKKTQLQLSQLLVLLKAILNGINNYKNPKLTRMLTFKFYMPKKATELKHLQCLEEELKPLEEVLNLAQSKNFHLIPRDLISNINVIVLELKGSETTFMCEYADETATIVEFLNRWITFCQSIISTLT ?
Result: 3.85

Task: Then what about the binder N88E, SQVLKA (ligand) APTSSSTKKTQLQLSQLLVLLKAILNGINNYKNPKLTRMLTFKFYMPKKATELKHLQCLEEELKPLEEVLNLAQSKNFHLRPRDLISEINVIVLELKGSETTFMCEYADETATIVEFLNRWITFCQSIISTLT ?
Result: 0.53

Task: Then what about the binder T3Q, SQVLKA (ligand) APQSSSTKKTQLQLSQLLVLLKAILNGINNYKNPKLTRMLTFKFYMPKKATELKHLQCLEEELKPLEEVLNLAQSKNFHLRPRDLISNINVIVLELKGSETTFMCEYADETATIVEFLNRWITFCQSIISTLT ?
Result: 4.03

Task: Then what about the binder ΔH16, S_VLKA (ligand) APTSSSTKKTQLQLSLLVLLKAILNGINNYKNPKLTRMLTFKFYMPKKATELKHLQCLEEELKPLEEVLNLAQSKNFHLRPRDLISNINVIVLELKGSETTFMCEYADETATIVEFLNRWITFCQSIISTLT ?
Result: 0.84

Task: Then what about the binder SNVLKA (ligand) APTSSSTKKTQLQLSNLLVLLKAILNGINNYKNPKLTRMLTFKFYMPKKATELKHLQCLEEELKPLEEVLNLAQSKNFHLRPRDLISNINVIVLELKGSETTFMCEYADETATIVEFLNRWITFCQSIISTLT ?
Result: 2.19

Task: Then what about the binder SQVLHA (ligand) APTSSSTKKTQLQLSQLLVLLHAILNGINNYKNPKLTRMLTFKFYMPKKATELKHLQCLEEELKPLEEVLNLAQSKNFHLRPRDLISNINVIVLELKGSETTFMCEYADETATIVEFLNRWITFCQSIISTLT ?
Result: 1.63

Task: Then what about the binder Q126G, SQVLKA (ligand) APTSSSTKKTQLQLSQLLVLLKAILNGINNYKNPKLTRMLTFKFYMPKKATELKHLQCLEEELKPLEEVLNLAQSKNFHLRPRDLISNINVIVLELKGSETTFMCEYADETATIVEFLNRWITFCGSIISTLT ?
Result: 0.49

Task: Then what about the binder SQVLTA (ligand) APTSSSTKKTQLQLSQLLVLLTAILNGINNYKNPKLTRMLTFKFYMPKKATELKHLQCLEEELKPLEEVLNLAQSKNFHLRPRDLISNINVIVLELKGSETTFMCEYADETATIVEFLNRWITFCQSIISTLT ?
Result: 1.38

Task: Then what about the binder L18M, SQVLKA (ligand) APTSSSTKKTQLQLSQLMVLLKAILNGINNYKNPKLTRMLTFKFYMPKKATELKHLQCLEEELKPLEEVLNLAQSKNFHLRPRDLISNINVIVLELKGSETTFMCEYADETATIVEFLNRWITFCQSIISTLT ?
Result: 2.72

Task: Then what about the binder T3N, SQVLKA (ligand) APNSSSTKKTQLQLSQLLVLLKAILNGINNYKNPKLTRMLTFKFYMPKKATELKHLQCLEEELKPLEEVLNLAQSKNFHLRPRDLISNINVIVLELKGSETTFMCEYADETATIVEFLNRWITFCQSIISTLT ?
Result: 3.32

Task: Then what about the binder L18F, SQVLKA (ligand) APTSSSTKKTQLQLSQLFVLLKAILNGINNYKNPKLTRMLTFKFYMPKKATELKHLQCLEEELKPLEEVLNLAQSKNFHLRPRDLISNINVIVLELKGSETTFMCEYADETATIVEFLNRWITFCQSIISTLT ?
Result: 2.52

Task: Then what about the binder L18V, SQVLKA (ligand) APTSSSTKKTQLQLSQLVVLLKAILNGINNYKNPKLTRMLTFKFYMPKKATELKHLQCLEEELKPLEEVLNLAQSKNFHLRPRDLISNINVIVLELKGSETTFMCEYADETATIVEFLNRWITFCQSIISTLT ?
Result: 0.96
